# TARGET ENTITY: KRAS-G12D (Homo sapiens, UniProt P01116, G12D)
# Construct: endogenous in cells; host or cells: A-427 (ATCC), AGS, AsPc-1, Panc 04.03
# Sequence (P01116 1-188 isoform P01116-2 G12D): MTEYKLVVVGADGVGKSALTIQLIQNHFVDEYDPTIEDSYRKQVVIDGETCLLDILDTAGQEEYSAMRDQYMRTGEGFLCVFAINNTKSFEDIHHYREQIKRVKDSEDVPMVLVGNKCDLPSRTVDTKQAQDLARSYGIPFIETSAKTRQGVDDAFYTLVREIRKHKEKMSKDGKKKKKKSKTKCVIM
# ASSAY DETAILS: KRAS-G12D degradation assay (Western Blot), A-427 cells
# Format: cell-based
# TEST CONDITIONS: A-427; A427 cells, 24 h; class symbols
# Text: The degradation effects of the compounds on KRAS-G12D were investigated on KRAS G12D mutant human lung cancer cell A-427 (ATCC), KRAS G12D mutant human gastric cancer cell AGS, KRAS G12D mutant human metastatic pancreatic cancer cell AsPc-1, and KRAS G12D mutant human pancreatic adenocarcinoma cell Panc 04.03. […]
EXPERIMENTAL ENDPOINT: Dmax

[[record]]
input_smiles = "CCc1cccc2cc(O)cc(-c3ncc4c(N5CC6CCC(C5)N6)nc(OCC5(CN6CCN(CCCC7CCN(C(=O)c8ccc(Cl)c(N9CCC(=O)NC9=O)c8)CC7)CC6)CC5)nc4c3F)c12"
experimental_endpoint = "Dmax"
result = "80 to 100%"

[[record]]
input_smiles = "C#Cc1c(F)ccc2cc(O)cc(-c3ncc4c(N5CC6CCC(C5)N6)nc(OCC5CCN(CCCCC6CCC7(CC6)CCN(C(=O)c6ccc(Cl)c(N8CCC(=O)NC8=O)c6)CC7)CC5)nc4c3F)c12"
experimental_endpoint = "Dmax"
result = "50 to 80%"

[[record]]
input_smiles = "C#Cc1c(F)ccc2cc(O)cc(-c3ncc4c(N5CC6CCC(C5)N6)nc(OCC5(CN6CCN(CC7CCC8(CC7)CCN(C(=O)c7ccc(C)c(N9CCC(=O)NC9=O)c7)CC8)CC6)CC5)nc4c3F)c12"
experimental_endpoint = "Dmax"
result = "80 to 100%"

[[record]]
input_smiles = "C#Cc1cccc2cc(O)cc(-c3ncc4c(N5CC6CCC(C5)N6)nc(OCC5(CN6CCN(CC7CCC8(CC7)CCN(C(=O)c7ccc(Cl)c(N9CCC(=O)NC9=O)c7)CC8)CC6)CC5)nc4c3F)c12"
experimental_endpoint = "Dmax"
result = "80 to 100%"

[[record]]
input_smiles = "C#Cc1c(F)ccc2cc(O)cc(-c3ncc4c(N5CC6CCC(C5)N6)nc(OCC5(CN6CCN(CC7CCC8(CC7)CCN(C(=O)c7ccc(F)c(N9CCC(=O)NC9=O)c7)CC8)CC6)CC5)nc4c3F)c12"
experimental_endpoint = "Dmax"
result = "80 to 100%"

[[record]]
input_smiles = "C#Cc1c(F)ccc2cc(O)cc(-c3ncc4c(N5CC6CCC(C5)N6)nc(OCC5(CN6CCN(CC7CCC8(CC7)CCN(C(=O)c7ccc(Cl)c(N9CCC(=O)NC9=O)c7)CC8)CC6)CC5)nc4c3F)c12"
experimental_endpoint = "Dmax"
result = "80 to 100%"

[[record]]
input_smiles = "C#Cc1c(F)ccc2cc(O)cc(-c3ncc4c(N5CC6CCC(C5)N6)nc(OCC5(CN6CCN(CCC7CCN(C(=O)c8ccc(Cl)c(N9CCC(=O)NC9=O)c8)CC7)CC6)CC5)nc4c3F)c12"
experimental_endpoint = "Dmax"
result = "50 to 80%"

[[record]]
input_smiles = "C#Cc1c(F)ccc2cc(O)cc(-c3ncc4c(N5CC6CCC(C5)N6)nc(OCC5(CN6CCN(CCCCC7CCN(C(=O)c8ccc(Cl)c(N9CCC(=O)NC9=O)c8)CC7)CC6)CC5)nc4c3F)c12"
experimental_endpoint = "Dmax"
result = "80 to 100%"

[[record]]
input_smiles = "CCc1cccc2cc(O)cc(-c3ncc4c(N5CC6CCC(C5)N6)nc(OC[C@@H]5CCCN5CCC5CCN(CCC(=O)N[C@H](C(=O)N6C[C@H](O)C[C@H]6C(=O)NCc6ccc(-c7scnc7C)cc6)C(C)(C)C)CC5)nc4c3F)c12"
experimental_endpoint = "Dmax"
result = "< 30%"

